molecular target: PYL2-HAB1 (Arabidopsis thaliana); construct: 6xHis (N); made in house; host or cells: E. coli BL21[DE3]pLysS (stated for GST-HAB1); assay: PP2C activity assay, PYL2-HAB1 inhibition; assay type: biochemical; conditions: dose response in triplicate, non-linear regression
Kindly apply the following: TRUE if IC50 is less than 50 nM, FALSE in every other case.

| MOLECULE | GROUP_LABEL |
| --- | --- |
| Cc1ccc(CS(=O)(=O)Nc2cc(F)c3c(c2)C(C)CC(=O)N3C(C)C)cc1 (stereo not drawn) | TRUE |
| CCCN1C(=O)CCc2cc(NS(=O)(=O)Cc3ccc(C)cc3)ccc21 | FALSE |
| CCN1C(=O)CC(C)c2cc(NS(=O)(=O)Cc3ccc(Cl)cc3Cl)cc(F)c21 (stereo not drawn) | FALSE |
| CCN1C(=O)CC(C)c2cc(NS(=O)(=O)Cc3ccc(C)c(F)c3)cc(F)c21 (stereo not drawn) | TRUE |
| CCCN1C(=O)CCc2cc(NS(=O)(=O)Cc3ccc(C#N)cc3F)cc(F)c21 | FALSE |
| CCN1C(=O)CC(C)c2cc(NS(=O)(=O)Cc3ccc(C)cc3)cc(F)c21 (stereo not drawn) | TRUE |
| CCN1C(=O)CC(C)c2cc(NS(=O)(=O)Cc3ccc(C#N)cc3F)cc(F)c21 (stereo not drawn) | FALSE |
| C=CCN1C(=O)CC(C)c2cc(NS(=O)(=O)Cc3ccc(C)cc3)cc(F)c21 (stereo not drawn) | FALSE |

Now take the following molecule into account.
Asked: Determine if CCN1C(=O)CC(C)c2cc(NS(=O)(=O)Cc3ccc(C(F)(F)F)cc3)cc(F)c21 (stereo not drawn) shows IC50 strictly lower than 50 nM.
Given back: FALSE

###

Attribute: activity at 0.2 µM
biological target: PYL1-HAB1 (Arabidopsis thaliana); construct: 6xHis (N); made in house; host or cells: E. coli BL21[DE3]pLysS (stated for GST-HAB1); assay: PP2C activity assay, PYL1-HAB1 inhibition; type: biochemical; details: 200 nM test compound, 100 nM HAB1 PP2C, 200 nM receptor; read-out: % Inhibition of PYR/PYL-HAB1 at 200 nM: PYL1
Sequence (Q8VZS8 whole entry, one chain of several): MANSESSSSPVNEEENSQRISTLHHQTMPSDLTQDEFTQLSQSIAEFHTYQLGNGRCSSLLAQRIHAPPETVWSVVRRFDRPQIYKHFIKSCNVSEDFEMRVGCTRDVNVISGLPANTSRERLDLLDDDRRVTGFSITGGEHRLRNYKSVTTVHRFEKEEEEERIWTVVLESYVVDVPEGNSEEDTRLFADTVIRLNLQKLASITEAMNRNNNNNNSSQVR
Kindly answer with a numeric value in %, unit omitted.

Solved entries (count: 4):
| COMPOUND_STRUCTURE | TARGET_DESC | activity at 0.2 µM [%] |
| --- | --- | --- |
| CCCN1C(=O)CCc2cc(NS(=O)(=O)Cc3ccc(C(=O)OC)cc3)cc(F)c21 | PYL1-HAB1 (Arabidopsis thaliana) | 78.9 |
| CCCN1C(=O)CCc2cc(NS(=O)(=O)Cc3ccc(C(F)(F)F)cc3)cc(F)c21 | PYL1-HAB1 (Arabidopsis thaliana) | 38.5 |
| CCCN1C(=O)CCc2cc(NS(=O)(=O)Cc3cccc(F)c3)cc(F)c21 | PYL1-HAB1 (Arabidopsis thaliana) | 48.2 |
| CCCN1C(=O)CCc2cc(NS(=O)(=O)Cc3ccc(Br)cc3F)cc(F)c21 | PYL1-HAB1 (Arabidopsis thaliana) | 18.2 |

Next item in the queue.
Asked: Give the value of activity at 0.2 µM reported for the following: CCCN1C(=O)CCc2cc(NS(=O)(=O)Cc3cccc(F)c3F)cc(F)c21
Given back: 31

###

Attribute: IC50
target: PYR1-HAB1 (Arabidopsis thaliana, UniProt O49686); construct: 6xHis (N); made in house; host or cells: E. coli BL21[DE3]pLysS (stated for GST-HAB1); assay: PP2C activity assay, PYR1-HAB1 inhibition; assay type: biochemical; conditions: dose response in triplicate, non-linear regression
Sequence (O49686 whole entry, one chain of several): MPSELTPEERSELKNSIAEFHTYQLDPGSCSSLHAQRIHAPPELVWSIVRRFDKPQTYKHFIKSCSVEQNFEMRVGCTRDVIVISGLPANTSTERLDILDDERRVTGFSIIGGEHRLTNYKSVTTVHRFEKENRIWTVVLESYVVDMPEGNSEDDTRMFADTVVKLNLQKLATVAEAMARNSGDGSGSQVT

Solved entries (count: 3):
| MOLECULE | ASSAY_VALUE |
| --- | --- |
| CCN1C(=O)CC(C)c2cc(NS(=O)(=O)Cc3ccc(Cl)nc3)cc(F)c21 (stereo not drawn) | 1250 nM |
| CCCN1C(=O)CCc2cc(NS(=O)(=O)Cc3ccc(Br)cc3)cc(F)c21 | 75 nM |
| CCCN1C(=O)CCc2cc(NS(=O)(=O)Cc3ccc(C)cc3)cc(Cl)c21 | 47.7 nM |

Next item in the queue.
Asked: Quote IC50 with test system PYR1-HAB1 (Arabidopsis thaliana, UniProt O49686) for CCN1C(=O)CC(C)c2cc(NS(=O)(=O)Cc3ccc(Cl)cc3Cl)cc(F)c21 (stereo not drawn)
Given back: > 10000 nM

###

Attribute: activity at 0.2 µM
Target: PYR1-HAB1 (Arabidopsis thaliana, UniProt O49686)
Construct: 6xHis (N); made in house; host or cells: E. coli BL21[DE3]pLysS (stated for GST-HAB1)
Assay: PP2C activity assay, PYR1-HAB1 inhibition
Assay type: biochemical
Details: 200 nM test compound, 100 nM HAB1 PP2C, 200 nM receptor; read-out: % Inhibition of PYR/PYL-HAB1 at 200 nM: PYR1
Text: The protein HAB1, a type 2 protein phosphatase (PP2C), is inhibited by PYR/PYL proteins in dependence of abscisic acid or other agonists. […] Since inhibition of PP2C correlates to inhibition of seed-germination and increase in plant water-use efficiency, it serves as a powerful tool to quantify biological potential of a chemical acting as an analogue of abscisic acid. […]
Kindly answer with a numeric value in %, unit omitted.

Asked: Give the value of activity at 0.2 µM reported for the following: CCCN1C(=O)CCc2cc(NS(=O)(=O)Cc3ccc(Br)cc3F)cc(F)c21
Given back: 42.9

Asked: Give the value of activity at 0.2 µM reported for the following: CCCN1C(=O)CCc2cc(NS(=O)(=O)Cc3ccc(C#N)cc3)cc(F)c21
Given back: 39.8

Asked: Give the value of activity at 0.2 µM reported for the following: CCCN1C(=O)CCc2cc(NS(=O)(=O)Cc3cccc(Br)c3)cc(F)c21
Given back: 90.8

Asked: Give the value of activity at 0.2 µM reported for the following: CCCN1C(=O)CCc2cc(NS(=O)(=O)Cc3ccccc3)cc(F)c21
Given back: 63.6

Asked: Give the value of activity at 0.2 µM reported for the following: CCCN1C(=O)CCc2cc(NS(=O)(=O)Cc3cccc(Cl)c3)cc(F)c21
Given back: 90

Asked: Give the value of activity at 0.2 µM reported for the following: CCCN1C(=O)CCc2cc(NS(=O)(=O)Cc3ccc(C(F)(F)F)nc3)cc(F)c21
Given back: 82.7

Asked: Give the value of activity at 0.2 µM reported for the following: CCCN1C(=O)CCc2cc(NS(=O)(=O)Cc3ccc(Cl)cc3Br)cc(F)c21
Given back: 105

Asked: Give the value of activity at 0.2 µM reported for the following: CCCN1C(=O)CCc2cc(NS(=O)(=O)Cc3ccc(F)cc3Br)cc(F)c21
Given back: 107

Asked: Give the value of activity at 0.2 µM reported for the following: CCCN1C(=O)CCc2cc(NS(=O)(=O)Cc3ccc(F)cc3Cl)cc(F)c21
Given back: 110

###

Target: PYL2-HAB1 (Arabidopsis thaliana, UniProt O80992)
Construct: 6xHis (N); made in house; host or cells: E. coli BL21[DE3]pLysS (stated for GST-HAB1)
Sequence (O80992 1-190): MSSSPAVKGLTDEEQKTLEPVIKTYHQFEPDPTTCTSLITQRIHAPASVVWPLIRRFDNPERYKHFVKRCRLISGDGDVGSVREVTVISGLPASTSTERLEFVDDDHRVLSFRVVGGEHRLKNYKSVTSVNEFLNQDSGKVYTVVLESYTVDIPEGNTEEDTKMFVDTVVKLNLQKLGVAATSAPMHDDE
Sequence (Q9CAJ0 23-511 partner): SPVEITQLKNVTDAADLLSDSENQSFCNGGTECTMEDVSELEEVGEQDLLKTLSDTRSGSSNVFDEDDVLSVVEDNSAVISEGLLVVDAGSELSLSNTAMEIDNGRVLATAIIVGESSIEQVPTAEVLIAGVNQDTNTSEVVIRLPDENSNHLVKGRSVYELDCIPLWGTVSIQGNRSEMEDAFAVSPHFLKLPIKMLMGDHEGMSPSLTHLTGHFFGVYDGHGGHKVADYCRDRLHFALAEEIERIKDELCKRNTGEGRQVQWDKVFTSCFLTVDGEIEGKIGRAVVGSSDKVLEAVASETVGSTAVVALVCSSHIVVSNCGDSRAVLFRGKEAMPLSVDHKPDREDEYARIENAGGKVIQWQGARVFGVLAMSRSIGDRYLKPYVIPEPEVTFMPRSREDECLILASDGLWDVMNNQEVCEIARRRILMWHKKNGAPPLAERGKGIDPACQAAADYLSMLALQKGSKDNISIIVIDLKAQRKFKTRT
Test: PP2C activity assay, PYL2-HAB1 inhibition
Format: biochemical
Settings: 200 nM test compound, 100 nM HAB1 PP2C, 200 nM receptor; read-out: % Inhibition of PYR/PYL-HAB1 at 200 nM: PYL2
Description: The protein HAB1, a type 2 protein phosphatase (PP2C), is inhibited by PYR/PYL proteins in dependence of abscisic acid or other agonists. […] Since inhibition of PP2C correlates to inhibition of seed-germination and increase in plant water-use efficiency, it serves as a powerful tool to quantify biological potential of a chemical acting as an analogue of abscisic acid. […]
OBSERVATION_TYPE: percent inhibition at 0.2 µM
Quote the value and follow it with the unit of measurement.

Solved entries (count: 8):
| COMPOUND | OBSERVATION_TYPE | ASSAY_VALUE |
| --- | --- | --- |
| CCCN1C(=O)CCc2cc(NS(=O)(=O)Cc3ccc(C)cc3)cc(Cl)c21 [HQ2] | percent inhibition at 0.2 µM | 38.9% |
| CCCN1C(=O)CCc2cc(NS(=O)(=O)Cc3ccc(C)cc3)cc(F)c21 [HQ1] | percent inhibition at 0.2 µM | 28% |
| CCCN1C(=O)CCc2cc(NS(=O)(=O)Cc3ccc(Br)cc3F)cc(F)c21 [HQ5] | percent inhibition at 0.2 µM | 51.8% |
| CCCN1C(=O)CCc2cc(NS(=O)(=O)Cc3ccc(Cl)cc3)cc(F)c21 [HQ18] | percent inhibition at 0.2 µM | 46.7% |
| CCCN1C(=O)CCc2cc(NS(=O)(=O)Cc3ccc(C(F)(F)F)nc3)cc(F)c21 [HQ19] | percent inhibition at 0.2 µM | 82.3% |
| CCCN1C(=O)CCc2cc(NS(=O)(=O)Cc3ccc(Cl)cc3Br)cc(F)c21 [HQ9] | percent inhibition at 0.2 µM | 92.2% |
| CCCN1C(=O)CCc2cc(NS(=O)(=O)Cc3ccccc3)cc(F)c21 [HQ26] | percent inhibition at 0.2 µM | 74.8% |
| CCCN1C(=O)CCc2cc(NS(=O)(=O)Cc3ccc(OC(F)(F)F)cc3)cc(F)c21 [HQ15] | percent inhibition at 0.2 µM | 70.1% |

Asked: Give the value of percent inhibition at 0.2 µM reported for the following: CCCN1C(=O)CCc2cc(NS(=O)(=O)Cc3cc(F)ccc3F)cc(F)c21 [HQ6]
Given back: 57.4%

Asked: Give the value of percent inhibition at 0.2 µM reported for the following: CCCN1C(=O)CCc2cc(NS(=O)(=O)Cc3ccc(C(F)(F)F)cc3)cc(F)c21 [HQ16]
Given back: 53.9%

Recorded values, source patent US11332443B2.
